test: NCI Yeast Anticancer Drug Screen. Data for the mec2-1 strain (AID 157); conditions: S. cerevisiae mec2-1 strain, at 5.0 µM (retest, dose inferred, filed as 0.5), hits give high values
About 79,000 compounds went through this panel and 15% of them were active in at least one assay; those are over-represented in the sample as a whole.
readout-label: growth inhibition (%)
Reply numerically in %, unit not repeated.

Recorded growth inhibition, per entry:
Cc1cccc(Cc2ccccc2Cl)c1O; -1
C=CC(=O)O; -1
CC(=O)c1ccc(N)cc1; 50
CCCCCCCCCCCCCCCCCC(=O)OC(Cc1ccccc1)C(=O)O (configuration not stated); 1
CCOC(=O)c1ccc(NCc2ccc3ccccc3n2)cc1; -11

Enquiry: Item NS(=O)(=O)c1ccc(Nc2c3ccccc3nc3c(C(=O)N4CCN(CCO)CC4)cccc23)cc1 has what recorded growth inhibition?
Return: 39

Enquiry: Another molecule to check: COC(=O)[C@]1(C)CCC[C@]2(C)c3ccc(C(C)C)cc3CC[C@@H]12
Return: 6

Enquiry: For CC(C)=CCC(O)C1=CC(=O)c2c(O)ccc(O)c2C1=O (configuration not stated) then?
Return: 46

Enquiry: Do the same for CCOC(=O)c1c(CN2CCNCC2)nc2ccc(Cl)cc2c1-c1ccccc1 please
Return: 35

Enquiry: One more molecule: COc1ccc(CC(=O)c2ccc(O)cc2O)cc1
Return: 38

Enquiry: Now consider NCC(=O)OCN1C(=O)C2C3C=CC(C2C1=O)C1C2C(=O)N(COC(=O)CN)C(=O)C2C31 (configuration not stated) and answer again.
Return: 20

Enquiry: Same question for BrC(c1cccc2ccccc12)c1cccc2ccccc12 please.
Return: 20

###

experiment: NCI Yeast Anticancer Drug Screen. Data for the sgs1 mgt1 strain (AID 161);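 further: 0% = growth of cultures given vehicle only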; conditions: S. cerevisiae sgs1 mgt1 strain, at 50.0 µM
The panel holds about 79,000 compounds, 15% with a hit somewhere; the sample as a whole holds those more often. Active and inactive are the calls of the source. No stated cut-off is given here; in the data, active means growth inhibition above about 70%; inactive means the rest.
A correct response names exactly one class from 1 for active, -1 for inactive

Worked examples follow.
Nc1ccc(Cc2ccc(Br)cc2)cc1; 1
CC(C)C(N)C(=O)NC(C(=O)NC(C(=O)O)C(C)C)C(C)C (stereo not drawn); -1
N#Cc1c(/N=C/c2ccccc2Cl)sc2c1CCC2; -1
ClCCCN(CCCCl)c1ccc(C=Nc2cccc(Cl)c2)cc1; 1
CC(=O)NC1CCC(C2CCCCC2)CC1C1CCCCC1 (stereo not drawn); 1
CN(C)c1ccc(/C=C/c2ccc3ccccc3[n+]2C)cc1; -1
CCSSc1ccccc1C(=O)NC(CC)CO (stereo not drawn); 1
Nc1nc(N)c2c(Cl)c(CNc3ccc(Cl)c(Cl)c3)ccc2n1; 1
C/C(=N\O)c1cc(Br)cc([N+](=O)[O-])c1O; -1
Cc1cc([N+](=O)[O-])c(C)c2c1[nH]c1ccc(O)cc12; 1

Enquiry: Please indicate how the test categorized CCOC(=O)c1c[nH]c2cc(C(F)(F)F)ccc2c1=O .
Return: -1

Enquiry: Try Cc1ccc(S(=O)(=O)NC2CCCCCCC2)cc1 next.
Return: 1

Enquiry: What do you get for CC1CC[P+](c2ccccc2)(c2ccccc2)c2c1ccc1ccccc21 (stereo not drawn) ?
Return: 1

Enquiry: Subsequent entry: CC(CCc1nc2ccccc2s1)(c1ccc(O)cc1)c1ccc(O)cc1
Return: 1

Enquiry: What would you report for CCN(CC)C(=S)Sc1nc2ccccc2s1 ?
Return: -1

Enquiry: Similarly, COC1OC(C(O)CO)C(O)C(O)C1O (stereo not drawn) ?
Return: -1

Enquiry: Request: C=C1C(=O)C23OC2C1CCC(=O)C1(C)CC[C@H](OC(C)=O)C(C)(C)[C@H]1CC3=O (stereo partly drawn)
Return: 1

Enquiry: Subsequent entry: O=C1OC(c2ccccc2)C(c2ccccc2)=C1c1ccccc1 (stereo not drawn)
Return: -1

Enquiry: Follow-up item: COc1c(CBr)c(CBr)c(OC)c2c1C(=O)c1ccccc1C2=O
Return: 1

###

assay: NCI Yeast Anticancer Drug Screen. Data for the mec2-1 strain (AID 157); conditions: S. cerevisiae mec2-1 strain, at 50.0 µM
The panel holds about 79,000 compounds, 15% with a hit somewhere; the sample as a whole holds those more often. Active and inactive are the calls of the source. Rule as the data show it: active = growth inhibition above about 70%; inactive = the rest.
Give your call using only these classes: active, inactive

The following molecules have reported results that may help.
O=[N+]([O-])c1ccc2ccccc2c1O; active
CC(NC(=O)/C(C#N)=C/c1ccc2[nH]ccc2c1)c1ccccc1 (configuration not stated); active
COc1nc2nc(C(O)C(O)CO)cnc2c(=O)n1C (configuration not stated); inactive
CCOC(=O)[C@H]1Nc2ccc([N+](=O)[O-])cc2C2c3ccccc3CC21 (some centres not stated); active
c1ccc(Cc2cc3ccccc3c3ccccc23)cc1; inactive

Enquiry: Tell me the assay call for CCCCCCCCCCNC1CC(OC2CC(O)(C(O)CO)Cc3c(O)c4c(c(O)c32)C(=O)c2c(OC)cccc2C4=O)OC(C)C1O (configuration not stated) please.
Return: active

Enquiry: // same read-out, input: C=CCN(CC=C)C(CC(=O)C(C)(C)C)=NCC
Return: inactive

Enquiry: Also O=C1OC(c2cccnc2)OC(c2ccccc2)=C1C(=O)c1ccccc1 (configuration not stated) , if possible.
Return: active

###

test: NCI Yeast Anticancer Drug Screen. Data for the rad50 strain (AID 155);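 further: 0% = growth of vehicle-only cultures of the same strain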; conditions: S. cerevisiae rad50 strain growth inhibition; at 50.0 µM
Compounds without any hit were thinned out: in the full panel of roughly 79,000, 15% have a hit. Calls of active or inactive are those of the source. No stated cut-off is given here; in the data, active means growth inhibition above about 70%; inactive means the rest.
Give your call using only these classes: Yes = active, No = inactive

C=C(C)C(=O)Oc1ccc(N=Nc2ccccc2)ccc1=O; Yes
CCSSC(=Nc1ccccc1)OCC(C)C; No
Cc1ccc(S(=O)(=O)Nc2cc(S(=O)(=O)O)c(N)c3c2C(=O)c2ccccc2C3=O)cc1; No
c1ccc2c(c1)[nH]c1c(N3CCOCC3)nnc(N3CCOCC3)c12; No
O=S(O)CCCCSSCC(O)C(O)CSSCCCCS(=O)O (stereo unspecified); No
C=C1CC2(CC(c3ccccc3OC)OC(c3ccccc3OC)C2)OC1=O (stereo unspecified); No

Enquiry: Call for entry C/C(=N\O)c1cc(Br)cc([N+](=O)[O-])c1O :
Return: No

Enquiry: Also CCOC(=O)C1=C(C(=O)c2ccc(OC)cc2)C(c2c(Cl)cccc2Cl)C(C(=O)c2ccc(OC)cc2)=C(C(=O)OCC)N1 ?
Return: No

Enquiry: Then what about the compound O=[N+]([O-])c1c(Br)cc(Br)c2c1Nc1c(ccc(Cl)c1Cl)S2 ?
Return: Yes

Enquiry: Then this compound: NNC(=O)c1ccc(NC(=O)CSc2nc3ccccc3s2)cc1
Return: Yes

Enquiry: Record: Cc1c(-c2ccccc2)ccnc1/C=N/NC(N)=S
Return: No

###

Measured growth inhibition values are reported for all entries that follow.
test: NCI Yeast Anticancer Drug Screen. Data for the bub3 strain (AID 167); details: S. cerevisiae bub3 mutant strain, at 5.0 µM (retest, dose inferred, filed as 0.5), hits give high values
This is part of a sample that, as a whole, favours compounds with a hit. Of some 79,000 tested, about 15% had one in any assay.
Reply with just the number (in %).

Solved entries:
O=C1C=CC(=O)c2c1ccc1c3ccccc3n(Cc3ccccc3)c21; 52
CC(=O)OC1CC2C(C)(C)C(=O)C=C[C@]2(C)C2CCC3(C)C(=CC(=O)C3c3ccoc3)[C@]12C (stereo partly specified); 7
COc1c(O)cc2oc3cc(O)c(CC=C(C)C)c(O)c3c(=O)c2c1CC=C(C)C; 98

Enquiry: Query (molecule): CCN(CC)CCC(=O)/C=C/c1ccccc1 ; field requested: growth inhibition
Return: 58

Enquiry: Try this molecule next: C=C1C(=O)OC2CC(C)C3C4OC4C(O)C3(C)C(O)C12 (stereo unspecified)
Return: 2

Enquiry: // repeat for C=CC(=O)O and report
Return: 1

Enquiry: Likewise for c1ccc(-c2[nH]c3ccccc3c2-c2ccccn2)cc1 ?
Return: 0

Enquiry: Similarly, O=[N+]([O-])c1cc([N+](=O)[O-])c2ccccc2c1NS(=O)(=O)/C=C/c1ccccc1 ?
Return: 2

Enquiry: Cool, now O=P(C(=S)NC1CC2C=CC1C2)(c1ccccc1)c1ccccc1 (stereo unspecified)
Return: -3

Enquiry: Entry O=[N+]([O-])c1cc2c(cc1S(=O)(=O)O)C1C(C3C2C2(Cl)C(Cl)=C(Cl)C3(Cl)C2(Cl)Cl)C2(Cl)C(Cl)=C(Cl)C1(Cl)C2(Cl)Cl (stereo unspecified) please
Return: -1

Enquiry: Lookup CC1(c2ccccc2)c2ccccc2N(c2ccccc2)C(=O)C1O (stereo unspecified)
Return: 97

###

assay: NCI Yeast Anticancer Drug Screen. Data for the mec2-1 strain (AID 157); settings: S. cerevisiae mec2-1 strain, at 50.0 µM, hits give high values
The panel holds about 79,000 compounds, 15% with a hit somewhere; the sample as a whole holds those more often. Activity calls are given as the source filed them. Rule as the data show it: active = growth inhibition above about 70%; inactive = the rest. Where a SMILES comes first, the peptide text is derived from it. [ ]: non-standard residue; d: D form. ξ: configuration not given here. ξI = CCC(C)C(N)C(=O)O
Overview of recorded growth inhibition for various compounds

Clc1c(C(Cl)(Cl)Cl)nsc1N1CCCCC1; 23.1% (inactive)
COc1cccc2c1C(=O)c1c(O)c3c(c(O)c1C2=O)C[C@@](O)(C(C)=O)C[C@@H]3OC1CC(O)C(O)C(C)O1 (stereo partly drawn); 88.3% (active)
C=C1C(=O)N2c3ccccc3C(C)(C)C2(S)C(=O)N1C (stereo not drawn); 95.6% (active)
O=C(CC1=Nc2nnc(CCCCCCCc3nnc4n3C(=O)C(CC(=O)c3ccc5ccccc5c3)=N4)n2C1=O)c1ccc2ccccc2c1; 9.85% (inactive)
NC(=O)NC(=O)C(Cc1ccc(Cl)cc1)c1ccccc1 (stereo not drawn); -13.2% (inactive)
CCOC(=O)C(Cc1c[nH]c2cc([N+](=O)[O-])ccc12)NS(=O)(=O)c1ccc2ccccc2c1 (stereo not drawn); 97.3% (active)

Enquiry: Form field: reported growth inhibition of CCCCN(C(=O)CCl)c1ccccc1
Return: 19.1% (inactive)

Enquiry: Further, for Cc1nc2ccccc2cc1CCl ?
Return: 59.5% (inactive)

Enquiry: Now consider C=CCc1c2c(ccc(=O)c1O)-c1c(cc(OC)c(OC)c1OC)CCC2NC(C)=O (stereo not drawn) and answer again.
Return: 60.5% (inactive)

Enquiry: Request: Cc1cc(/C=C/C2CCC3CC(C)CCC3N2CCO)c(C)n1-c1ccccc1 (stereo not drawn)
Return: 98.8% (active)

Enquiry: Try this compound next: CCCCCCCN
Return: 20.9% (inactive)

Enquiry: Another compound to check: CC1(C)C(c2ccccc2)=Nc2ccccc21
Return: 92.6% (active)

Enquiry: Also, C=C(C)C(=O)Oc1ccc(N=Nc2ccccc2)ccc1=O please.
Return: 81% (active)

Enquiry: How about this compound: CC(CCc1nc2ccccc2s1)(c1ccc(O)cc1)c1ccc(O)cc1
Return: 99.7% (active)

Enquiry: Query CCC(C)C(NC(=O)CN)C(=O)O (stereo not drawn) (H-Gly-[ξI]-OH) next
Return: -3% (inactive) [middle of 4 runs]

Enquiry: Next entry: COc1ccc(/C=C2\C=Nc3ccccc32)cc1
Return: -5.7% (inactive)

Enquiry: Same question, Cc1ccnc2c1c(=O)c1ccccc1n2C this time
Return: 60.2% (inactive)
